# Subject Of Test: GST-KH (Bicc1 KH domains)
# Sequence (Q99MQ1 whole entry, looked up): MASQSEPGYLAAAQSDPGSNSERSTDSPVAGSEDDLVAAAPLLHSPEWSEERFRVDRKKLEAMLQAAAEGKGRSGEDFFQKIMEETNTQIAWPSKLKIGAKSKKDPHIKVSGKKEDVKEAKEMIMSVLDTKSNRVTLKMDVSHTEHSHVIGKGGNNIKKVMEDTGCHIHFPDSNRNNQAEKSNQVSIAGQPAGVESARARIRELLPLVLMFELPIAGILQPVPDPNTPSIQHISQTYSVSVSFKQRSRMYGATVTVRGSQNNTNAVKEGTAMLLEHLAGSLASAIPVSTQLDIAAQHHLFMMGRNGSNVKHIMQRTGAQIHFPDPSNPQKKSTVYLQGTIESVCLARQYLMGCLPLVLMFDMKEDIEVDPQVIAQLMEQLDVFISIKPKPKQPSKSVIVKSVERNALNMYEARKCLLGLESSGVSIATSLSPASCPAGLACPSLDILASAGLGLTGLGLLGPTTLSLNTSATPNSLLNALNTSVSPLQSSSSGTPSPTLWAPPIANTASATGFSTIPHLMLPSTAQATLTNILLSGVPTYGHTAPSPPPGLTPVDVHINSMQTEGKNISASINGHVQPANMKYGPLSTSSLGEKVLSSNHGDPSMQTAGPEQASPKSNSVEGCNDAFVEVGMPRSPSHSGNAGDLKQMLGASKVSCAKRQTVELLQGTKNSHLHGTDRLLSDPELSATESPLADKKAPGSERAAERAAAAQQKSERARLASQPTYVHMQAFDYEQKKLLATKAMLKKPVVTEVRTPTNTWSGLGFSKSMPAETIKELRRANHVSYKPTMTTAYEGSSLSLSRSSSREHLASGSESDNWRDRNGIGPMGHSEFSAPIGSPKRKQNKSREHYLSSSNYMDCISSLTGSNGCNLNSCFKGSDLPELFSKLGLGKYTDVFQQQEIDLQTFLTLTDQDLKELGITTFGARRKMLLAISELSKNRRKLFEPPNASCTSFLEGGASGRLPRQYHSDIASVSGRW
# Assay: EMSA
# Particulars: EMSA buffer 1X: 10 mM Tris-HCl pH 8.0, 100 mM KCl, 2.5 mM MgCl2, 2.5% glycerol (slightly below 1X in some mixes); about 1 mM DTT, 0.05 ug/uL yeast tRNA; 50 nM …
Quantity Measured: pKd
Give bare numbers, as −log10 of the molar value.

[ask] State its pKd for this sequence: GAAGAAAGACGUGACCUGAAUGAUGUGCAUCGGGUCAAGAGAGCAGAAACACGUACCGAGAUGGUGCGC / CGCACCATCTCGGTACGTG [Dand5 3'UTR66-110 WT Tag#2 annealed to Probe #2]
[reply] 6.96

***
[ask] State its pKd for this sequence: GAAGAAAGACGUGACCUGAAUGAUGUGCAUCGGGUCAAGAGAGCAGAAUGUCUGGGCAACAGGCUCAGG / CTGAGCCTGTTGCCCAGAC [Dand5 3'UTR66-110 WT Tag#1 annealed to Probe #1]
[reply] 6.99

These data points were gathered from paper PMC12727980.
